# Tested Target: Human c-Met (human, UniProt P08581 25-1390)
# Sequence (P08581 25-1390 limits assumed): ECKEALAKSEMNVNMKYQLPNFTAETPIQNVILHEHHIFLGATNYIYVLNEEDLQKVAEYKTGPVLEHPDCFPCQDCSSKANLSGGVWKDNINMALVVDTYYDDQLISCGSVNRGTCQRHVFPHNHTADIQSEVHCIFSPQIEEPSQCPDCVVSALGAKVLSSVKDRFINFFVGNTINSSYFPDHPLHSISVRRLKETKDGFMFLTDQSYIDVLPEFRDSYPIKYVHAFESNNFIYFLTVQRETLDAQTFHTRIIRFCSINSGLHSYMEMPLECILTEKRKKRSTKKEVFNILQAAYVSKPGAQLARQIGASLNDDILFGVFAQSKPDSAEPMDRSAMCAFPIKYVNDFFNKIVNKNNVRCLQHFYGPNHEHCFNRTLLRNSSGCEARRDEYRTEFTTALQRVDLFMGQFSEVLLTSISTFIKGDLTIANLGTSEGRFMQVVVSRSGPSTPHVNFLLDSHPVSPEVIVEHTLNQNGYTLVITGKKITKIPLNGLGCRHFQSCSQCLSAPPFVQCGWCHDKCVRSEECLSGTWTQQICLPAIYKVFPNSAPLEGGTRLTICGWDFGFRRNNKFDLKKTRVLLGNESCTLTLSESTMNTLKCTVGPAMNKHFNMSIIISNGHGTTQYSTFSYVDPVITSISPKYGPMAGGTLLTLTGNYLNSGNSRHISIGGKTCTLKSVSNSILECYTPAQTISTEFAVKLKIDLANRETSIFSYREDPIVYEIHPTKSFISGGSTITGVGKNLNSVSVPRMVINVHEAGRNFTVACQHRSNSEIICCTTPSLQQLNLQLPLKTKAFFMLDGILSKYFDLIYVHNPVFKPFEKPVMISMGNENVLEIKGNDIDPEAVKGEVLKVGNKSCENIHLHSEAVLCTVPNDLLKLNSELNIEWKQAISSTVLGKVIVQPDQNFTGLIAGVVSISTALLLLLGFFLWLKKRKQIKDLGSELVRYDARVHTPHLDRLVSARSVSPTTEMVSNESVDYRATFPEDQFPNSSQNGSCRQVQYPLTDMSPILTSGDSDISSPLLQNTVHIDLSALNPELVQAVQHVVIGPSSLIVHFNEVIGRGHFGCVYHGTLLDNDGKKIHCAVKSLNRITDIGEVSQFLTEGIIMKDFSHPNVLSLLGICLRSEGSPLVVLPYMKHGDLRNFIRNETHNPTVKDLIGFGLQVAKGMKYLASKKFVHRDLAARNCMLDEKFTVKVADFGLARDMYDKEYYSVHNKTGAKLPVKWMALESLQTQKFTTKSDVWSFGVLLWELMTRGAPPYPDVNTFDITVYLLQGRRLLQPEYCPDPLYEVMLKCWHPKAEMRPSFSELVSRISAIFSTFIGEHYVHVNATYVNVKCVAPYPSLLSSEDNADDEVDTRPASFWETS
# Experiment: cell-based or functional assay
Provide the recorded IC50, cell-based cMet phosphorylation assay for the entries that follow.
Give bare numbers, in nM.

A007901250 (VHH, 33H10 variant, 3xFLAG-His6 tagged; the entry holds the tag; also called monovalent form of A007901260) VHH: EVQLVESGGGLVQPGGSLRLSCAASGFAFDDYAIGWFRQAPGEERLGVSSISSTYGLTYYADSVKGRFTISSDNSKNTVYLQMNSLRPEDTAVYYCAATPIGLIGLDAYEYDYWGQGTLVTVSS: 2.34

Hi team, please reply with IC50, cell-based cMet phosphorylation assay for each item in this list.
1. A007901245 (VHH, 33H10 variant, 3xFLAG-His6 tagged; the entry holds the tag; also called monovalent form of A007901255) VHH: EVQLVESGGGLVQPGGSLRLSCAASGFTFDDYAIGWFRQAPGEEREGVSSISSTYGLTYYADSVKGRFTISSDNSKNTVYLQMNSLRPEDTAVYYCAATPIGLIGLDAYEYDYWGQGTLVTVSS
2. A007901247 (VHH, 33H10 variant, 3xFLAG-His6 tagged; the entry holds the tag) VHH: EVQLVESGGGLVQPGGSLRLSCAASGFTFDDYAIGWFRQAPGKEREGVSSISSTYGLTYYADSVKGRFTISSDNSKNTVYLQMNSLRPEDTAVYYCAATPIGLIGLDAYEYDYWGQGTLVTVSS
3. A007901251 (VHH, 33H10 variant, 3xFLAG-His6 tagged; the entry holds the tag) VHH: EVQLVESGGGLVQPGGSLRLSCAASGFTFDDYAIGWFRQAPGKERLGVSSISSTYGLTYYADSVKGRFTISSDNSKNTVYLQMNSLRPEDTAVYYCAATPIGLIGLDAYEYDYWGQGTLVTVSS

OUT:
5.41
12.8
4.98
